# Target Of Assay: human CCR6 (Homo sapiens, UniProt P51684)
# Construct: expressed in transfected cells; host or cells: HEK-293
# Sequence (P51684 whole entry): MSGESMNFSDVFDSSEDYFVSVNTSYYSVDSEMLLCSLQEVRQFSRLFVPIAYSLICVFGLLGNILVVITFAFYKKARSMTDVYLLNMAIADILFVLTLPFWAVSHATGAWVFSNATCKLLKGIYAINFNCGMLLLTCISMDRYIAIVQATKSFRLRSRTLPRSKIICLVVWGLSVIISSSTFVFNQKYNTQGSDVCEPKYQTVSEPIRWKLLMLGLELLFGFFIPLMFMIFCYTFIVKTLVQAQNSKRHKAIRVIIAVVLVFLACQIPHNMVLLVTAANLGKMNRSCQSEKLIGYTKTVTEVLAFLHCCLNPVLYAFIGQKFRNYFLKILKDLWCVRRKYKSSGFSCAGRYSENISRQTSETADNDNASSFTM
# Method Description: FLIPR assay (inhibition of CCL20-induced calcium signal)
# Assay type: cell-based
# Settings: HEK-293 cells expressing human CCR6; mean values where determined several times; read-out: FLIPR IC50
Value Type: IC50 (nM)

Solved cases below.
CC(C)c1ccc([C@](O)(c2cncc(C(=O)NC3CCOCC3)c2)C2(C)CN(C)C2)cc1 | 515
CN1CC(C)(C(O)(c2ccc(OC(F)(F)F)cc2)c2ccc(OCc3ccccc3)nc2)C1 (centres unmarked) | 167
CC(C)c1ccc([C@](O)(c2cncc(C#CC(C)(C)N3CCN(C)C3=O)c2)C2(C)CN(C)C2)cc1 | 51.6
CC(C)c1ccc([C@](O)(c2cncc(-c3noc(CC(C)(C)O)n3)c2)C2(C)CN(C(C)C)C2)cc1 | 95.1
CC(C)c1ccc([C@](O)(c2cncc(N3CC4(CCOCC4)CC3=O)c2)C2(C)CN(C)C2)cc1 | 459
CC(C)c1ccc([C@](O)(c2cncc(C#CC(C)(O)c3n[nH]c4ccccc34)c2)C2(C)CN(C)C2)cc1 (some centres unmarked) | 11.1

A: CC(C)c1ccc([C@](O)(c2cnnc(CCC(C)(O)c3ccccc3)c2)C2(C)CN(C)C2)cc1 (some centres unmarked)
B: CC(C)c1ccc([C@](O)(c2cncc(-c3noc(C4(N(C)S(C)(=O)=O)CC4)n3)c2)C2(C)CN(C)C2)cc1
Ask: Lab note: record which item had the higher IC50, A or B . Write the label of whichever entry you select.
Result: A
(A: 103 nM, B: 58.8 nM)

I: CC(=O)N1CCC(c2nc(-c3cncc(C(O)(c4ccc(CC(C)(C)C)cc4)C4(C)CN(C)C4)c3)no2)CC1 (centres unmarked)
II: Cc1cnc(-c2cncc([C@@](O)(c3ccc(C(C)C)cc3)C3(C)CN(C)C3)c2)o1
III: CN1CC(C)([C@](O)(c2ccc(C3(C(F)(F)F)CC3)cc2)c2cncc(N3C[C@@H](F)[C@@H](F)C3)c2)C1
Ask: Please list these compounds in decreasing order of IC50. Put the labels in the requested order and list them out.
Result: I, II, III
(I: 116 nM, II: 49.9 nM, III: 27.9 nM)

a: CC(C)c1ccc([C@](O)(c2cncc(N3CCC4(CCCCC4)C3=O)c2)C2(C)CN(C)C2)cc1
b: CC(=O)N1CCCC(c2nc(-c3cncc([C@@](O)(c4ccc(C(C)C)cc4)C4(C)CN(C)C4)c3)no2)C1 (some centres unmarked)
Ask: Please indicate which item has the smaller measured IC50: a versus b Write the label of whichever entry you select.
Result: a
